// Plant response rating, Velvetleaf lookup, one value per entry
system: velvetleaf (Abutilon theophrasti); experiment: Test C greenhouse herbicide test, pre- and postemergence; type: in vivo; conditions: Postemergence, 125 g ai/ha; scale 0 to 100, 0 is no effect, 100 is complete control
measurementLabel: Plant response rating, Velvetleaf

> print(dat)
                                  smilesstr  datavalue
1  Cc1ccc2ccccc2c1-c1c(O)c(C(F)(F)F)nn(C)c1=O        100
2  COC(=O)Oc1cnn(C)c(=O)c1-c1c(C)sc2ccccc12         10
3    Cc1cc2ccccc2c(-c2c(O)c(C)nn(C)c2=O)c1C        100
4    CCc1oc2ccc(C)cc2c1-c1c(O)c(C)nn(C)c1=O         40
5      CCc1ccc2ccccc2c1-c1c(O)c(C)nn(C)c1=O         85
6    Cc1nn(C)c(=O)c(-c2cccc3ccc(Br)cc23)c1O         98
7  CC(=O)Oc1c(C)nn(C)c(=O)c1-c1c(C)sc2ccc(Cl)cc12        100

---

// Chickweed plant response rating lookup, one value per entry
test system: chickweed (common chickweed, Stellaria media); test: Test C greenhouse herbicide test, postemergence; format: in vivo; conditions: postemergence, 62 g ai/ha; scale 0 to 100, 0 no effect, 100 complete control
measurementLabel: Chickweed plant response rating

> print(dat)
                                  smilesstr                            targetorsystem  datavalue
1  CC(=O)Oc1c(C)nn(C)c(=O)c1-c1c(C)cc(C)c2ccccc12  chickweed (common chickweed, Stellaria media)         90
2    Cc1cc2ccccc2c(-c2c(O)c(C)nn(C)c2=O)c1C  chickweed (common chickweed, Stellaria media)         90
3       Cc1ccc2ccccc2c1-c1c(O)c(I)nn(C)c1=O  chickweed (common chickweed, Stellaria media)         95
4  COC(=O)Oc1cnn(C)c(=O)c1-c1c(C)sc2ccccc12  chickweed (common chickweed, Stellaria media)          0
5  Cc1nn(C)c(=O)c(-c2c(C)sc3ccc(C(F)(F)F)cc23)c1O  chickweed (common chickweed, Stellaria media)         90

---

system: soybean (Glycine max); assay: Test C greenhouse herbicide test, pre- and postemergence; assay type: in vivo; conditions: Postemergence, 125 g ai/ha; scale 0 to 100, 0 is no effect, 100 is complete control
Classification field: Criterion met = Plant response rating, Soybean at or over 5; Criterion not met = Plant response rating, Soybean under 5.

> print(dat)
                                  smilesstr         targetorsystem      assignedlabel
1  Cc1nn(C)c(=O)c(-c2c(C)sc3ccc(Br)cc23)c1O  soybean (Glycine max)  Criterion not met
2    CCc1oc2ccc(C)cc2c1-c1c(O)c(C)nn(C)c1=O  soybean (Glycine max)  Criterion not met
3  CCCC(=O)Oc1c(C)nn(C)c(=O)c1-c1c(CC)sc2ccc(C)cc12  soybean (Glycine max)      Criterion met
4    Cc1cc2ccccc2c(-c2c(O)c(C)nn(C)c2=O)c1C  soybean (Glycine max)      Criterion met
5    CCc1sc2ccc(C)cc2c1-c1c(O)c(C)nn(C)c1=O  soybean (Glycine max)      Criterion met
